# protocolDescription: log P by HPLC on reversed-phase columns (EEC Directive 79/831 Annex V.A8)
# Assay type: physicochemical
# measurementConditions: pH 2.7, log P
outcomeMeasure: chromatographic logP
Lab note: record just the number, no unit beside it.

# example entries with known answers
Cc1cc(Cl)cc(C(=O)NC2CCN(C)C2=O)c1NC(=O)c1cc(Cn2nnc(C(F)(F)F)n2)nn1-c1ncccc1Cl (stereo not shown) | 2.66
Cc1cc(Cl)cc(C(=O)NC2COC2)c1NC(=O)c1cc(Cn2nnc(C(F)(F)F)n2)nn1-c1ncccc1Cl | 2.8
Cc1cc(Cl)cc(C(=O)NCc2ncc(F)cc2F)c1NC(=O)c1cc(Cn2nnc(C(F)(F)F)n2)nn1-c1ncccc1Cl | 3.5
Cc1cccc(C(C)NC(=O)c2cc(Cl)cc(C)c2NC(=O)c2cc(Cn3nnc(C(F)(F)F)n3)nn2-c2ncccc2Cl)c1 (stereo not shown) | 4.28
Cc1cc(C#N)cc(C(=O)NCc2ccc(Cl)nc2)c1NC(=O)c1cc(Cn2nnc(C(F)(F)F)n2)nn1-c1ncccc1Cl | 3.11
Cc1cc(Cl)cc(C(=O)Nc2ccccc2)c1NC(=O)c1cc(Cn2nnc(C(F)(F)F)n2)nn1-c1ncccc1Cl | 3.81

Now for a further compound.
(Q) Please report the recorded chromatographic logP for Cc1cc(Cl)cc(C(=O)NC2=NCCS2)c1NC(=O)c1cc(Cn2nnc(C(F)(F)F)n2)nn1-c1ncccc1Cl .
(A) 3.5
